method: Stability of the compound in simulated human gastric juices up to 1500 mins by HPLC analysis
Type: ADME, Gastric juice
condition description: 25 h
experimental endpoint: Stability

C[C@]12C=CC(=O)C=C1CC[C@@H]1[C@@H]2[C@@H](O)C[C@@]2(C)[C@H]1CC[C@]2(O)C(=O)COC(=O)CCc1ccccc1[N+](=O)[O-]: Stable
Cc1ccc(-c2cc(C(F)(F)F)nn2-c2ccc(S(=O)(=O)NC(=O)Cc3ccccc3[N+](=O)[O-])cc2)cc1: Stable
CCCC1O[C@@H]2C[C@H]3[C@@H]4CCC5=CC(=O)C=C[C@]5(C)[C@H]4[C@@H](O)C[C@]3(C)[C@]2(C(=O)COC(=O)Cc2ccccc2[N+](=O)[O-])O1 (stereo partly drawn): Stable
